# Test system: Mus musculus
# Measurement Protocol: Analgesic activity in Mus musculus […] albino (mouse) assessed as time taken to tail withdrawl at 100 mg/kg, po administered through intragastric tube after 60 min by tail flick test (reference value: 1.363 +/- 0.1297 secs)
# Format: functional
Label t when Time is strictly below 3 s; at or above that, label f.

Please review the entries below; each comes with its answer.
>  <Molecule>
COc1ccc(Br)c(C(=O)NN2C(=O)CSC2C2=C(Cl)c3ccccc3C(c3ccc(Cl)c(Cl)c3)C2)c1 (stereo not drawn)

>  <Group Label>
f

$$$$
>  <Molecule>
CC(C)=CCN1CC[C@]2(C)c3cc(O)ccc3C[C@H]1[C@H]2C [(+)-PENTAZOCINE]

>  <Group Label>
f

$$$$
>  <Molecule>
COc1ccc(Br)c(C(=O)NN2C(=O)CSC2c2ccc(O)cc2)c1 (stereo not drawn)

>  <Group Label>
t

$$$$
>  <Molecule>
COc1ccc(Br)c(C(=O)NN2C(=O)CSC2c2cccc(Cl)c2)c1 (stereo not drawn)

>  <Group Label>
t

$$$$
>  <Molecule>
COc1ccc(C2SCC(=O)N2NC(=O)c2cc(OC)ccc2Br)c(OC)c1 (stereo not drawn)

>  <Group Label>
f

$$$$
>  <Molecule>
COc1ccc(Br)c(C(=O)NN2C(=O)CSC2c2ccc(C)cc2)c1 (stereo not drawn)

>  <Group Label>
t

$$$$
>  <Molecule>
COc1ccc(Br)c(C(=O)NN2C(=O)CSC2c2ccc([N+](=O)[O-])cc2)c1 (stereo not drawn)

>  <Group Label>
f

$$$$

*Q* # strict comparison: is reported Time < 3 s? input = COc1ccc(Br)c(C(=O)NN2C(=O)CSC2c2ccccc2)c1 (stereo not drawn)
*A* f

---

Listed below: Activity values for each entry.
# Test system: Rattus norvegicus
# Measurement Protocol: Anti-inflammatory activity in Rattus norvegicus (rat) assessed as decrease in carrageenan-induced paw edema at 100 mg/kg, po administered 30 min prior to carrageenan challenge measured after 120 min (reference value: 2.375 +/- 0.1436 mm)
# Format: functional
Give the value, in units of mm, as a plain number.

Some solved cases for reference:
>  <Compound>
O=C(O)Cc1ccccc1Nc1c(Cl)cccc1Cl

>  <Value Units>
mm

>  <Activity>
0.625

$$$$
>  <Compound>
COc1ccc(C2SCC(=O)N2NC(=O)c2cc(OC)ccc2Br)c(OC)c1 (stereo not drawn)

>  <Value Units>
mm

>  <Activity>
2.15

$$$$

*Q* Entry under review: COc1ccc(Br)c(C(=O)NN2C(=O)CSC2c2ccc([N+](=O)[O-])cc2)c1 (stereo not drawn) . Reported Activity?
*A* 1.8

*Q* Entry under review: COc1ccc(Br)c(C(=O)NN2C(=O)CSC2c2ccccc2OC)c1 (stereo not drawn) . Reported Activity?
*A* 1.95

*Q* Entry under review: COc1ccc(Br)c(C(=O)NN2C(=O)CSC2c2ccc(F)cc2)c1 (stereo not drawn) . Reported Activity?
*A* 2.05

*Q* Entry under review: COc1ccc(Br)c(C(=O)NN2C(=O)CSC2c2ccccc2Cl)c1 (stereo not drawn) . Reported Activity?
*A* 1.975

*Q* Entry under review: COc1ccc(Br)c(C(=O)NN2C(=O)CSC2c2ccc(C)cc2)c1 (stereo not drawn) . Reported Activity?
*A* 1.9

*Q* Entry under review: COc1ccc(Br)c(C(=O)NN2C(=O)CSC2c2cccnc2)c1 (stereo not drawn) . Reported Activity?
*A* 1.75
